biological target: KRas G12D (Homo sapiens, UniProt P01116, G12D); test: biochemical; conditions: Binding to KRas (IC50 nM) G12D, TR-FRET displacement, KRas G12D
Sequence (P01116 1-169 isoform P01116-2 G12D): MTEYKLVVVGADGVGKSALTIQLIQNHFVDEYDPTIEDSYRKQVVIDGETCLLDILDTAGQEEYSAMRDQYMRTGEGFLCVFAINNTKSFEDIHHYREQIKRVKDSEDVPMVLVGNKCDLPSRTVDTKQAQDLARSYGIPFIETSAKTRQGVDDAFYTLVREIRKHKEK
metric: IC50 (nM)

Before answering, review these 5 worked examples.
{"compound": "CCc1cccc2cccc(N3CCc4c(nc(OCC5(CN(C)C)CC5)nc4NCc4ncn(C(C)C)n4)C3)c12", "metric": "IC50", "quantitativeReadout": 8420}
{"compound": "CCc1c(F)ccc2cc(O)cc(N3CCc4c(nc(OC[C@@]56CCCN5C[C@H](F)C6)nc4N4CCCn5nc(NC)c(OC)c5C4)C3)c12", "metric": "IC50", "quantitativeReadout": 4}
{"compound": "CCc1c(F)ccc2cc(O)cc(N3CCc4c(nc(OC[C@@]56CCCN5C[C@H](F)C6)nc4N4CCCc5nc[nH]c5C4)C3)c12", "metric": "IC50", "quantitativeReadout": 11}
{"compound": "CCc1cccc2cccc(N3CCc4c(nc(OCC5(CN(C)C)CC5)nc4NCCc4nncn4C(C)C)C3)c12", "metric": "IC50", "quantitativeReadout": 75700}
{"compound": "Cc1cc2[nH]ncc2c(N2CCc3c(nc(OCC45CCCN4CCC5)nc3N3CCOCC(C)(O)C3)C2)c1C (stereo not drawn)", "metric": "IC50", "quantitativeReadout": 67}

P. C[C@@H]1C[C@@H]1c1c(Cl)cc2[nH]ncc2c1N1CCc2c(nc(OCC34CCCN3CCC4)nc2N2CCC[C@]3(C2)NC(=O)NC3=O)C1
Q. CCc1cccc2cccc(N3CCc4c(nc(OCC5(CN(C)C)CC5)nc4N4CCCC(c5nc(=O)[nH][nH]5)C4)C3)c12 (stereo not drawn)
**Query** P or Q : whose IC50 is greater? Indicate your choice by writing its label.
**Result** Q
(Q: 5440 nM, P: 3 nM)

P. CCc1c(F)ccc2cc(O)cc(N3CCc4c(nc(OC[C@@]56CCCN5C[C@H](F)C6)nc4N4CCCn5nc(N(C)C)cc5C4)C3)c12
Q. CCc1cccc2cccc(N3CCc4c(nc(OCC5(CN(C)C)CC5)nc4N4CCCC(n5cccn5)C4)C3)c12 (stereo not drawn)
R. CCc1c(F)ccc2cc(O)cc(N3CCc4c(nc(OC[C@@]56CCCN5C[C@H](F)C6)nc4N4CCOCC(P(C)(C)=O)C4)C3)c12 (stereo partly drawn)
**Query** Sort entries by IC50 from minimum to maximum value. Returns: the labels listed in the requested order.
**Result** P, R, Q

I. CCc1cccc2cccc(N3CCc4c(nc(OCC5(CN(C)C)CC5)nc4N4CC(CO)OC(C(F)(F)F)C4)C3)c12 (stereo not drawn)
II. CCc1cccc2cccc(N3CCc4c(nc(OCC5(CN(C)C)CC5)nc4N4CCOC(C(F)F)CC4)C3)c12 (stereo not drawn)
**Query** Short answer wanted: higher IC50, I or II ? Pick one; state its label.
**Result** II

###

tested on: MKN1 cells; assay: Inhibition of KRas-mediated phosphorylation of ERK (Cisbio HTRF pERK), MKN1 cells; assay type: cell-based; settings: Homo sapiens, MKN-1, 3 hour compound incubation, Cisbio pERK HTRF
metric: IC50 (nM)

Solved entries:
{"compound": "CCc1c(F)ccc2cc(O)cc(N3CCc4c(nc(OC[C@@]56CCCN5C[C@H](F)C6)nc4N4CCCn5nc6c(c5C4)CCCN6)C3)c12", "metric": "IC50", "quantitativeReadout": 111}
{"compound": "CCc1c(F)ccc2cc(O)cc(N3CCc4c(nc(OC[C@@]56CCCN5C[C@H](F)C6)nc4N4CCCn5nc(N(C)C(C)=O)cc5C4)C3)c12", "metric": "IC50", "quantitativeReadout": 417}
{"compound": "CCc1c(F)ccc2cc(O)cc(N3CCc4c(nc(OC[C@]56CCCN5[C@H](CNS(=O)(=O)N(C)C)CC6)nc4N4CCCn5nc(C(=O)N(C)C)cc5C4)C3)c12", "metric": "IC50", "quantitativeReadout": 49.1}
{"compound": "CCc1c(F)ccc2cc(O)cc(N3CCc4c(nc(OC[C@@]56CCCN5C[C@H](F)C6)nc4N4CCCCn5nc(C(=O)N(C)C6CC6)cc5C4)C3)c12", "metric": "IC50", "quantitativeReadout": 11}
{"compound": "CCc1c(F)ccc2cc(O)cc(N3CCc4c(nc(OC[C@@]56CCCN5C[C@H](F)C6)nc4N4CCCn5nc(C(=O)N6CC7CCC(C7)C6)cc5C4)C3)c12", "metric": "IC50", "quantitativeReadout": 26.3}
{"compound": "CCc1c(F)ccc2cc(O)cc(N3CCc4c(nc(OC[C@@]56CCCN5C[C@H](F)C6)nc4N4CCCn5nc(C(=O)N6C[C@@H]7C[C@H](C6)[C@H](O)C7)cc5C4)C3)c12", "metric": "IC50", "quantitativeReadout": 8.9}

I. CCc1c(F)ccc2cc(O)cc(N3CCc4c(nc(OC[C@@]56CCCN5C[C@H](F)C6)nc4N4CCCCn5nc(C(=O)N6CCOCC6)cc5C4)C3)c12
II. CCc1c(F)ccc2cc(O)cc(N3CCc4c(nc(OC[C@@]56CCCN5C[C@H](F)C6)nc4N4CCCn5nc(C(=O)OC)cc5C4)C3)c12
III. CCc1c(F)ccc2cc(O)cc(N3CCc4c(nc(OC[C@@]56CCCN5C[C@H](F)C6)nc4N4CCCn5nc(CNC(=O)N(C)C)cc5C4)C3)c12
**Query** I would appreciate it if you could sort these 3 compounds by IC50, starting from the smallest number. Output the labels ranked as instructed.
**Result** I, II, III
(I: 12 nM, II: 30.1 nM, III: 814 nM)

A. CCc1c(F)ccc2cc(O)cc(N3CCc4c(nc(OC[C@@]56CCCN5C[C@H](F)C6)nc4N4CCCn5nc(C(=O)N(C)CCOCCOC)cc5C4)C3)c12
B. CCc1c(F)ccc2cc(O)cc(N3CCc4c(nc(OC[C@@]56CCCN5C[C@H](F)C6)nc4N4CCCn5nc(CC(=O)N(C)C)cc5C4)C3)c12
C. CCNC(=O)c1cc2n(n1)CCCCN(c1nc(OC[C@@]34CCCN3C[C@H](F)C4)nc3c1CCN(c1cc(O)cc4ccc(F)c(CC)c14)C3)C2
**Query** Order the records by IC50, with each subsequent value no larger than the one before. Show the ranking through the labels, in the order asked for.
**Result** B, C, A
(B: 63 nM, C: 12.9 nM, A: 6.6 nM)

1. CCc1c(F)ccc2cc(O)cc(N3CCc4c(nc(OC[C@@]56CCCN5C[C@H](F)C6)nc4N4CCCn5nc(C(=O)N(C)C)c(Br)c5C4)C3)c12
2. CCc1c(F)ccc2cc(O)cc(N3CCc4c(nc(OC[C@@]56CCCN5C[C@H](F)C6)nc4N4C[C@@H]5C[C@H](C4)[C@H](O)C5)C3)c12 [Example 585B]
3. CCc1c(F)ccc2cc(O)cc(N3CCc4c(nc(OC[C@@]56CCCN5C[C@H](F)C6)nc4N4CCCn5nc(C(=O)N6CCC7CC6CN7C)cc5C4)C3)c12 (some centres unmarked)
4. CCc1c(F)ccc2cc(O)cc(N3CCc4c(nc(OCC5(CN(C)C)CC5)nc4N4CCCC5(CCO5)C4)C3)c12 (centres unmarked)
**Query** Sort (4 compounds) by IC50: min first. Respond with an ordered listing of the labels, as requested.
**Result** 1, 2, 3, 4
(1: 3 nM, 2: 19.7 nM, 3: 41.2 nM, 4: 250 nM)

The reported numbers originate from patent US20250368649A1.
